These measurements were taken from ChEMBL document CHEMBL4825684.

Assay: Drug uptake in Sprague-Dawley rat cerebrospinal fluid at 60 mg/kg, ip measured after 2 hrs by LC-MS analysis
Type: ADME, organism-based
Settings: read-out: Drug uptake
PROPERTY_MEASURED: concentration at 2 h (ng/mL)
Numbers only; they are read as ng/mL.

Just so you know, measured concentration at 2 h for "COc1cc(Nc2ccccc2C(=O)NCCc2c[nH]c3ccccc23)cc(OC)c1OC" came out at 200

* * *

Experiment: Plasma concentration in Sprague-Dawley rat at 60 mg/kg, ip measured after 2 hrs by LC-MS analysis
Type: ADME, organism-based
PROPERTY_MEASURED: concentration at 2 h (ng/mL)
Respond with the bare value in ng/mL.

Value of concentration at 2 h reported for the compound "COc1cc(Nc2ccccc2C(=O)NCCc2c[nH]c3ccccc23)cc(OC)c1OC" is 520
